- EXPERIMENT_DESCRIPTION: AMES test (reverse mutagenicity test), strain TA98, with and without S-9
- Format: cell-based
- APPLIED_CONDITIONS: s9, TA98, without S9, 20 μg/plate; read-out: magnification of the total number of the mutant colony to the control
MEASURED_PARAMETER: fold induction
// no unit string in output, number only

Query block: Could you please provide reported fold induction for CCCCc1ccc(N=Nc2c(S(=O)(=O)O)cc3cc(S(=O)(=O)O)c(N=Nc4ccc(C5(c6ccc(N=Nc7ccc(N(CC)CC)cc7C)cc6)CCCCC5)cc4)c(N)c3c2O)cc1 [Example 7] ? Thanks!
Result block: 1.05

Query block: Could you please provide reported fold induction for CCC(C)c1ccc(N=Nc2c(S(=O)(=O)O)cc3cc(S(=O)(=O)O)c(N=Nc4ccc(C5(c6ccc(N=Nc7ccc(N)cc7O)cc6)CCCCC5)cc4)c(N)c3c2O)cc1 (stereo not shown) [Example 3] ? Thanks!
Result block: 0.81

Query block: Could you please provide reported fold induction for CCCCc1ccc(N=Nc2c(S(=O)(=O)O)cc3cc(S(=O)(=O)O)c(N=Nc4ccc(C5(c6ccc(N=Nc7ccc(O)cc7O)cc6)CCCCC5)cc4)c(N)c3c2O)cc1 [Example 2] ? Thanks!
Result block: 0.78

Query block: Could you please provide reported fold induction for CC(C)c1ccc(N=Nc2c(S(=O)(=O)O)cc3cc(S(=O)(=O)O)c(N=Nc4ccc(C5(c6ccc(N=Nc7ccc(N)cc7O)cc6)CCCCC5)cc4)c(N)c3c2O)cc1 [Example 5] ? Thanks!
Result block: 0.9

---

Recorded measurements of fold induction, one per entry
- EXPERIMENT_DESCRIPTION: AMES test (reverse mutagenicity test), strain TA98, with and without S-9
- Assay type: cell-based
- APPLIED_CONDITIONS: s9, TA98, without S9, 313 μg/plate; read-out: magnification of the total number of the mutant colony to the control

Known fold induction results, listed for orientation:
# COMPOUND_STRUCTURE, EXPERIMENTAL_VALUE
records = [
    ("CCCCc1ccc(N=Nc2c(S(=O)(=O)O)cc3cc(S(=O)(=O)O)c(N=Nc4ccc(C5(c6ccc(N=Nc7ccc(N(CC)CC)cc7C)cc6)CCCCC5)cc4)c(N)c3c2O)cc1", 0.9),
    ("Nc1ccc(N=Nc2ccc(C3(c4ccc(N=Nc5c(S(=O)(=O)O)cc6cc(S(=O)(=O)O)c(N=Nc7ccccc7)c(O)c6c5N)cc4)CCCCC3)cc2)c(O)c1", 1.07),
    ("Cc1ccc(N=Nc2c(S(=O)(=O)O)cc3cc(S(=O)(=O)O)c(N=Nc4ccc(C5(c6ccc(N=Nc7ccc(N)cc7O)cc6)CCCCC5)cc4)c(N)c3c2O)cc1", 1.48),
    ("CC(C)c1ccc(N=Nc2c(S(=O)(=O)O)cc3cc(S(=O)(=O)O)c(N=Nc4ccc(C5(c6ccc(N=Nc7ccc(N)cc7O)cc6)CCCCC5)cc4)c(N)c3c2O)cc1", 1.07),
]

Query block: Could you please provide reported fold induction for CCCCc1ccc(N=Nc2c(S(=O)(=O)O)cc3cc(S(=O)(=O)O)c(N=Nc4ccc(C5(c6ccc(N=Nc7ccc(O)cc7O)cc6)CCCCC5)cc4)c(N)c3c2O)cc1 ? Thanks!
Result block: 0.61

---

Recorded measurements of fold induction, one per entry
- EXPERIMENT_DESCRIPTION: AMES test (reverse mutagenicity test), strain TA98, with and without S-9
- Format: cell-based
- APPLIED_CONDITIONS: s9, TA98, with S9, 78 μg/plate; read-out: magnification of the total number of the mutant colony to the control
// no unit string in output, number only

Known fold induction results, listed for orientation:
# COMPOUND_STRUCTURE, fold induction
records = [
    ("Cc1ccc(N=Nc2c(S(=O)(=O)O)cc3cc(S(=O)(=O)O)c(N=Nc4ccc(C5(c6ccc(N=Nc7ccc(N)cc7O)cc6)CCCCC5)cc4)c(N)c3c2O)cc1", 1.43),
    ("CCCCc1ccc(N=Nc2c(S(=O)(=O)O)cc3cc(S(=O)(=O)O)c(N=Nc4ccc(C5(c6ccc(N=Nc7ccc(N(C)C)cc7O)cc6)CCCCC5)cc4)c(N)c3c2O)cc1", 1.37),
]

Moving on to another compound below.
Query block: Could you please provide reported fold induction for CCCCc1ccc(N=Nc2c(S(=O)(=O)O)cc3cc(S(=O)(=O)O)c(N=Nc4ccc(C5(c6ccc(N=Nc7ccc(N)cc7O)cc6)CCCCC5)cc4)c(N)c3c2O)cc1 ? Thanks!
Result block: 1.03

Data origin, for the record: patent US5486601A
